B1: CPEB3 Ribozyme (parent)
chain: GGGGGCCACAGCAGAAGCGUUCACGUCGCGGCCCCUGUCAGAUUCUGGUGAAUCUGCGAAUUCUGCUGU

- Variants of: B1
- assay.notes: self-cleavage, relative activity (ratio to wild type); higher = more cleavage; co-transcriptional
Note to self: values exactly at 0.6 are Y. So self-cleavage at or above 0.6 is Y, below is N.

record.sequence: GGGGGCCACAGCAGAAGCGUUCACGUCGCGGCCCCUGUCAGAUUCUGGUGACUCUGCGAAUUCUACUGU [A52C G65A]
assigned.class: Y
--
record.sequence: GGGGGCCACAGCAGAAGCGUUGACGUCGCGGCCCCUGUCAGAUACUGGUGAAUCUGCGAAUUCUGCUGU [C22G U44A]
assigned.class: N
--
record.sequence: GGGGGCCACAGCAGAAGUGUUGACGUCGCGGCCCCUGUCAGAUUCUGGUGAAUCUGCGAAUUCUGCUGU [C18U C22G]
assigned.class: N
--
record.sequence: GGGGGCCACAGCAGAAGCGUUCACGUCGGGGGCCCUGUCAGAUUCUGGUGAAUCUGCGAAUUCUGCUGU [C29G C32G]
assigned.class: N
--
record.sequence: GGGGGCCACAGCACAAGCGUUCACGUCGCGGCCCCUGUCAGCUUCUGGUGAAUCUGCGAAUUCUGCUGU [G14C A42C]
assigned.class: N
--
record.sequence: GGGGGCCACAGCAGAAGCGUUCACGUCGCGGCCCCUGUCAGAAUCUGGUGAAUCUACGAAUUCUGCUGU [U43A G56A]
assigned.class: Y
--
record.sequence: GGGGGCCACAGCAGAAGCGUUCACGUCGCGGCCCCUGUCAGAUUGUGAUGAAUCUGCGAAUUCUGCUGU [C45G G48A]
assigned.class: Y
--
record.sequence: GGGGGCCACAGCAGAAGCGUUCACGUCGGCGCCCCUGUCAGAUUCUGGUGAAUCUGCGAAUUCUGCUGU [C29G G30C]
assigned.class: N
--
record.sequence: AGGGGCCACAGCAGAAGCGUUCACGUCCCGGCCCCUGUCAGAUUCUGGUGAAUCUGCGAAUUCUGCUGU [G1A G28C]
assigned.class: N
--
record.sequence: GGGGGCCACAGUAGAAGCGUUCACGUCGCGGCCCCUGUCAGAUUCUGGUGAAUGUGCGAAUUCUGCUGU [C12U C54G]
assigned.class: Y
--
record.sequence: GGGGGCCACAGCAGAAGCGUUCACGUCGCGGCCCCUAUCAGAUUCUGGUGAAUCCGCGAAUUCUGCUGU [G37A U55C]
assigned.class: N
--
record.sequence: GGGGGCCACAGCAGAAGCGUUCACGUCGCGGCCCCUGUCAUAUUCUGGUGAAUCUGCGAUUUCUGCUGU [G41U A60U]
assigned.class: N
--
record.sequence: GGGGGCCACAGCGGAAGCGUUCACGUCGCGGCCCCUGUCAGAUUCUGGUGAAUCUGCGUAUUCUGCUGU [A13G A59U]
assigned.class: N
--
record.sequence: GGGGGCCACACCAGAAGCGUUCACGUCACGGCCCCUGUCAGAUUCUGGUGAAUCUGCGAAUUCUGCUGU [G11C G28A]
assigned.class: N
--
record.sequence: GGGGGCCACAGCGGAAGCGUUCACGUCGCGGCCCCUGUCAGAUUCUGGUGAAUCUGCGACUUCUGCUGU [A13G A60C]
assigned.class: N
--
record.sequence: GGGGGCCACAGCAGACGCGUUCACGUCGCGGCCCCUGUCAGAUUCUGGUGAAUCUGCGAAGUCUGCUGU [A16C U61G]
assigned.class: Y
--
record.sequence: GGGGGCCACAGCAGAAGCGUUCACGUCGCGGCCCCUGUCAGCUUCUGGUGAAUCUGCGAAUUCUGCCGU [A42C U67C]
assigned.class: Y
--
record.sequence: GGGGGCCACAGCAGAAGCGUUCACGUCGCGGCCCCUAUCAGAUUCAGGUGAAUCUGCGAAUUCUGCUGU [G37A U46A]
assigned.class: N
--
record.sequence: GGGGGCCACAGCAGUAGCGUUCACGUCGCGGCCCCUGUCAGAUUCUGGUGAAACUGCGAAUUCUGCUGU [A15U U53A]
assigned.class: N
--
record.sequence: GUGGGCCACAGCACAAGCGUUCACGUCGCGGCCCCUGUCAGAUUCUGGUGAAUCUGCGAAUUCUGCUGU [G2U G14C]
assigned.class: N
--
record.sequence: GGGGGCCACAGCAGAAGCGUUCACGUCGCGGCCCCUGUCAGAUUAUGGUGAAUCUGCGAAUUCGGCUGU [C45A U64G]
assigned.class: Y
--
record.sequence: GAGGGCCACAGCAGAAGCGUUCACGUCGCGGCCCCUGUCAGAUUCUGGUGAAUCUGCGAAUUCUGCUAU [G2A G68A]
assigned.class: N
